// provenance: patent US20230295152A1

Assay: In vivo PK study in male Sprague Dawley rats
Settings: male, Sprague Dawley, plasma, intravenous, 1 mg/kg; in vivo DMPK profile, rat; read-out: Rat CL
MEASURED_METRIC: clearance (mL/min/kg)

1) CC(C)(O)Cn1cnc2c(-c3cccnc3)nc(-c3ccc(C(F)(F)F)nc3)cc2c1=O [Compound 9] : 4.1
2) C[C@@H](CO)n1cnc2c(-c3cccnc3)nc(-c3ccc(C(F)(F)F)cn3)cc2c1=O [Compound 46] : 6.7

----------
Assay: In vivo PK study in male CD1 mice
Conditions: male, CD1, mouse, plasma; mice, 10 mg/kg PO
The entries below are paired with their reported log10 Tmax.
MEASURED_METRIC: log10 Tmax (log10 of the value in h)

1) CC(C)(O)Cn1cnc2c(-c3cccnc3)nc(-c3ccc(C(F)(F)F)nc3)cc2c1=O : 0.75
2) Cc1ccc(-c2cc3c(=O)n([C@@H](C)CO)cnc3c(-c3cccnc3)n2)cc1 : -0.38
3) C[C@H](n1cnc2c(-c3cnn(C)c3)nc(-c3ccc(Cl)cc3)cc2c1=O)C(C)(C)O : 0.90
4) CC(C)(O)Cn1cnc2c(-c3cccnc3)nc(-c3ccc(C(F)(F)F)cn3)cc2c1=O : 1.08
5) Cn1cc(-c2nc(-c3ccc(C(F)(F)F)cn3)cc3c(=O)n(CC(C)(C)O)cnc23)cn1 : 1.12
6) Cn1cc(-c2nc(-c3ccc(C(F)(F)F)nc3)cc3c(=O)n(CC(C)(C)O)cnc23)cn1 : 0.90
7) CC(C)(O)Cn1cnc2c(-c3cccnc3)nc(-c3ccc(Cl)cc3)cc2c1=O : 0.82

----------
Assay: Caco-2 Permeability Assay
Assay type: in vitro ADME
Conditions: human, Caco-2, pH 7.4, apical to basolateral; read-out: Caco2 Papp (AB)
MEASURED_METRIC: Papp A→B at 2 h, 1 μM

1) CC(C)(O)Cn1cnc2c(-c3cccnc3)nc(-c3ccc(C(F)(F)F)cn3)cc2c1=O [Compound 105] : > 10 ×10⁻⁶ cm/s
2) Cn1cc(-c2nc(-c3ccc(Cl)cc3)cc3c(=O)n(CC(C)(C)O)cnc23)cn1 [Compound 21] : 2 to 10 ×10⁻⁶ cm/s
3) C[C@@H](CO)n1cnc2c(-c3cccc(F)c3)nc(-c3ccc(C(F)(F)F)cn3)cc2c1=O [Compound 47] : < 2 ×10⁻⁶ cm/s
4) C[C@H](n1cnc2c(-c3cnn(C)c3)nc(-c3ccc(Cl)cc3)cc2c1=O)C(C)(C)O [Compound 30] : 2 to 10 ×10⁻⁶ cm/s
5) C[C@@H](CO)n1cnc2c(-c3cccnc3)nc(-c3ccc(OC(F)(F)F)cc3)cc2c1=O [Compound 22] : 2 to 10 ×10⁻⁶ cm/s
6) C[C@@H](CO)n1cnc2c(-c3cccc(F)c3)nc(-c3ccc(C(F)(F)F)nc3)cc2c1=O [Compound 8] : 2 to 10 ×10⁻⁶ cm/s
7) C[C@@H](CO)n1cnc2c(-c3cccnc3)nc(-c3ccc(C(F)(F)F)nc3)cc2c1=O [Compound 12] : 2 to 10 ×10⁻⁶ cm/s
8) CC(C)(O)Cn1cnc2c(-c3cccnc3)nc(-c3ccc(C(F)(F)F)nc3)cc2c1=O [Compound 9] : 2 to 10 ×10⁻⁶ cm/s
9) Cn1cc(-c2nc(-c3ccc(C(F)(F)F)cn3)cc3c(=O)n(CC(C)(C)O)cnc23)cn1 [Compound 103] : 2 to 10 ×10⁻⁶ cm/s
10) C[C@@H](CO)n1cnc2c(-c3cccnc3)nc(-c3ccc(C(F)(F)F)cn3)cc2c1=O [Compound 46] : > 10 ×10⁻⁶ cm/s
11) C[C@@H](CO)n1cnc2c(-c3cccnc3)nc(-c3ccc(C4CC4)nc3)cc2c1=O [Compound 74] : 2 to 10 ×10⁻⁶ cm/s
12) C[C@@H](n1cnc2c(-c3cnn(C)c3)nc(-c3ccc(Cl)cc3)cc2c1=O)C(C)(C)O [Compound 31] : 2 to 10 ×10⁻⁶ cm/s
13) C[C@@H](CO)n1cnc2c(-n3ccnc3)nc(-c3ccc(OC(F)(F)F)cc3)cc2c1=O [Compound 44] : 2 to 10 ×10⁻⁶ cm/s
14) Cc1ccc(-c2cc3c(=O)n([C@@H](C)CO)cnc3c(-c3cccnc3)n2)cc1 [Compound 17] : > 10 ×10⁻⁶ cm/s
